Target: Androgen receptor (AR) (Homo sapiens, UniProt P10275, T878A)
Construct: 5.5×10^5 LNCap cells were injected into each well of a 6-well plate; endogenous in cells; host or cells: LNCaP
Sequence (P10275 whole entry T878A): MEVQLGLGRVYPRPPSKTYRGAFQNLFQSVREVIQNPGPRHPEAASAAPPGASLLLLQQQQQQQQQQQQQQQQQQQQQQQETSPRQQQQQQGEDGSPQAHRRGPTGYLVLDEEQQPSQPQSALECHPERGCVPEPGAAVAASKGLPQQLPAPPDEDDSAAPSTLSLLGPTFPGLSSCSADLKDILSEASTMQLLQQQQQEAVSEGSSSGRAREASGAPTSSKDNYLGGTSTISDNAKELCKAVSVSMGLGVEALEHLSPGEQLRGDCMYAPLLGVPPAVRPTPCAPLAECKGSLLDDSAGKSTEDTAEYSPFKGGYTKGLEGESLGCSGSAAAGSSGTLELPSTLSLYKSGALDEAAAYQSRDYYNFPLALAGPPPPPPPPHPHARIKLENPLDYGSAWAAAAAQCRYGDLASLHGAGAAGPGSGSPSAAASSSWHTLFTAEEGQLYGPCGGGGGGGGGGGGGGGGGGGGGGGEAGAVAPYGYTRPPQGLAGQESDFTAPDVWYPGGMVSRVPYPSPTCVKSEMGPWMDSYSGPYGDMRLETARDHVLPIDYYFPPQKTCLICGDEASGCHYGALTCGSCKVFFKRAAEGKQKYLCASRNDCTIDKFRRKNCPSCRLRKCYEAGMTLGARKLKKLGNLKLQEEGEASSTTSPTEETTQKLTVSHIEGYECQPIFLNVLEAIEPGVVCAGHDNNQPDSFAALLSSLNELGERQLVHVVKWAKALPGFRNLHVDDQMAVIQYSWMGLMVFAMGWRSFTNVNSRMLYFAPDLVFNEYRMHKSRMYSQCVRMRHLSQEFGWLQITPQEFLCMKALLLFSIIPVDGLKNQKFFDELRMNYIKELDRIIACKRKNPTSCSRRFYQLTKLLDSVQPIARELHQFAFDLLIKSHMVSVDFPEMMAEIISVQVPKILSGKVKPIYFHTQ
Test: Assessment of AR proteolytic activity (Western blotting of LNCap cell lysates)
Format: cell-based
Conditions: 24 hours of treatment, Western blotting quantified with Image J, read-out: Degradation (1 μM treated in LNCaP, % AR remaining)
# strict inequality: remaining activity at 1 µM < 10% yields YES, everything else yields NO

CC1(C)[C@H](NC(=O)c2ccc(N3CCC(CN4CCN(C(=O)C5CCN(c6ccc7nnn(C8CCC(=O)NC8=O)c(=O)c7c6)CC5)CC4)CC3)cc2)C(C)(C)[C@H]1Oc1ccc(C#N)c(Cl)c1 (some centres unmarked) [Example 49] = YES
CC1(C)[C@H](NC(=O)c2ccc(N3CCN(CC4(F)CCN(c5ccc6nnn(C7CCC(=O)NC7=O)c(=O)c6c5)CC4)CC3)cc2)C(C)(C)[C@H]1Oc1ccc(C#N)c(Cl)c1 (some centres unmarked) [Example 61] = NO
CC1(C)[C@H](NC(=O)c2ccc(N3CCN(CC4CCN(C(=O)COc5ccc6nnn(C7CCC(=O)NC7=O)c(=O)c6c5)CC4)CC3)cc2)C(C)(C)[C@H]1Oc1ccc(C#N)c(Cl)c1 (some centres unmarked) [Example 13] = YES
CC1(C)[C@H](NC(=O)c2ccc(N3CCN(CCOC4CCN(c5ccc6nnn(C7CCC(=O)NC7=O)c(=O)c6c5)CC4)CC3)cc2)C(C)(C)[C@H]1Oc1ccc(C#N)c(Cl)c1 (some centres unmarked) [Example 34] = NO
CC1(C)[C@H](NC(=O)c2ccc(C3CCN(CC4CCN(c5ccc6nnn(C7CCC(=O)NC7=O)c(=O)c6c5)CC4)CC3)cc2)C(C)(C)[C@H]1Oc1ccc(C#N)c(Cl)c1 (some centres unmarked) [Example 50] = YES

###

Entries and their log10 CC50
System: VCaP cells
Readout type: log10 CC50 (log10 of the value in nM)

CC1(C)[C@H](NC(=O)c2ccc(N3CCN(CC4(F)CCN(C(=O)C5CN(c6ccc7nnn(C8CCC(=O)NC8=O)c(=O)c7c6)C5)CC4)CC3)cc2)C(C)(C)[C@H]1Oc1ccc(C#N)c(Cl)c1 (stereo partly shown) = 1.17
CC1(C)C(NC(=O)c2ccc(N3CCN(C(=O)CN4CCN(c5ccc6nnn(C7CCC(=O)NC7=O)c(=O)c6c5)CC4)CC3)cc2)C(C)(C)C1Oc1ccc(C#N)c(Cl)c1 (stereo not shown) = 2.35
CC1(C)C(NC(=O)c2ccc(N3CCN(CC4CCN(CCNC(=O)COc5ccc6nnn(C7CCC(=O)NC7=O)c(=O)c6c5)CC4)CC3)cc2)C(C)(C)C1Oc1ccc(C#N)c(Cl)c1 (stereo not shown) = 3.52
CC1(C)[C@H](NC(=O)c2ccc(N3CCN(CCC4CCN(c5ccc6nnn(C7CCC(=O)NC7=O)c(=O)c6c5)CC4)CC3)cc2)C(C)(C)[C@H]1Oc1ccc(C#N)c(Cl)c1 (stereo partly shown) = 2.08
CC1(C)[C@H](NC(=O)c2ccc(-c3cnn(C4CCN(CC5CCN(C(=O)C6CN(c7ccc8nnn(C9CCC(=O)NC9=O)c(=O)c8c7)C6)CC5)CC4)c3)cc2)C(C)(C)[C@H]1Oc1ccc(C#N)c(Cl)c1 (stereo partly shown) = 0.78
CC1(C)[C@H](NC(=O)c2ccc(N3CCN(CCCC4CCN(c5ccc6nnn(C7CCC(=O)NC7=O)c(=O)c6c5)CC4)CC3)cc2)C(C)(C)[C@H]1Oc1ccc(C#N)c(Cl)c1 (stereo partly shown) = 1.89
CC1(C)[C@H](NC(=O)c2ccc(-n3cc(C4CCN(C(=O)C5CN(c6ccc7nnn(C8CCC(=O)NC8=O)c(=O)c7c6)C5)CC4)nn3)cc2)C(C)(C)[C@H]1Oc1ccc(C#N)c(Cl)c1 (stereo partly shown) = 1.19
[C-]#[N+]c1ccc(OC2C(C)(C)C(NC(=O)c3ccc(N4CCN(CCc5cn(-c6ccc7nnn(C8CCC(=O)NC8=O)c(=O)c7c6)nn5)CC4)cc3)C2(C)C)cc1Cl (stereo not shown) = 1.67
CC1(C)[C@H](NC(=O)c2ccc(N3CCN(CC4CCN(C(=O)C5CN(c6ccc7nnn(C8CCC(=O)NC8=O)c(=O)c7c6)C5)CC4)CC3)cc2)C(C)(C)[C@H]1Oc1ccc(C#N)c(Cl)c1 (stereo partly shown) = 1.87
CC1(C)[C@H](NC(=O)c2ccc(N3CCN(CC4(O)CCN(C(=O)COc5ccc6nnn(C7CCC(=O)NC7=O)c(=O)c6c5)CC4)CC3)cc2)C(C)(C)[C@H]1Oc1ccc(C#N)c(Cl)c1 (stereo partly shown) = 2.74
